Values from ChEMBL document CHEMBL1743341

Target: CYP3A5 (Homo sapiens)
Sequence (P20815 whole entry): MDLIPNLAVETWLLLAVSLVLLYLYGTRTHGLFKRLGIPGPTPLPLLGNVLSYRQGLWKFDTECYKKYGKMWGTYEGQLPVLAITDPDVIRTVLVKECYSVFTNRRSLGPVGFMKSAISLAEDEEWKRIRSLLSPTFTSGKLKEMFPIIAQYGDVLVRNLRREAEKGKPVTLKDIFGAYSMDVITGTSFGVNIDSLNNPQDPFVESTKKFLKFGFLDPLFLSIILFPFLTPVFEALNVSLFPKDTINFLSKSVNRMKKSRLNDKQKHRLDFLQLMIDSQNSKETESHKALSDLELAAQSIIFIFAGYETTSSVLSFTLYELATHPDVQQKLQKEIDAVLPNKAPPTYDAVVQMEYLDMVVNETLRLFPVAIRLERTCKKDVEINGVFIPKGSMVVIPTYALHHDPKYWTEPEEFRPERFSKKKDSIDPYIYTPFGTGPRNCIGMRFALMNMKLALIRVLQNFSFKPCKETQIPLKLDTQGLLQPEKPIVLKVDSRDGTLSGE
Test: Mechanism based inhibition of human cytochrome P450 3A5 measured by testosterone hydroxylation
Assay type: ADME
Details: human, probe testosterone (hydroxylation)
Parameter Measured: kinact (s⁻¹)
Express it in s⁻¹; write the number only.

State its kinact for this compound: `CC(C)CN(C[C@@H](O)[C@H](Cc1ccccc1)NC(=O)O[C@H]1CCOC1)S(=O)(=O)c1ccc(N)cc1`
0.00583

====

Target: Cytochrome P450 3A4 (Homo sapiens)
Sequence (P08684 whole entry): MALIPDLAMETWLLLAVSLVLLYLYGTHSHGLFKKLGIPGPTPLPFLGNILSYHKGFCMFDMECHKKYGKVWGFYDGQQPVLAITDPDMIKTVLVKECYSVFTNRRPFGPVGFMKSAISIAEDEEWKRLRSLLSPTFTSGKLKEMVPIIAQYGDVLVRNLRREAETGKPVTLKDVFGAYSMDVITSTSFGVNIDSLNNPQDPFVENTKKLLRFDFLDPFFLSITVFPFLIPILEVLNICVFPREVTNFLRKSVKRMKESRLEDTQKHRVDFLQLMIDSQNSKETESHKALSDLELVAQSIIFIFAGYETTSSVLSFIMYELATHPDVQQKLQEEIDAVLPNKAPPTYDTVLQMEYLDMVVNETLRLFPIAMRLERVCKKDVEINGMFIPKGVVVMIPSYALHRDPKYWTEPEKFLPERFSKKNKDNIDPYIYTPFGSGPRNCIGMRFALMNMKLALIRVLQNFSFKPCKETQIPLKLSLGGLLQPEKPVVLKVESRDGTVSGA
Assay: Mechanism based inhibition of human cytochrome P450 3A4 using expressed CYP3A4 cDNA
Format: ADME
Parameter Measured: Ki
The reply must contain the numeric value and, after it, the unit.

For COc1ccc(CCNCCCC(C#N)(c2ccc(OC)c(OC)c2)C(C)C)cc1OC (stereo unspecified) , write its Ki.
10.3 µM

====

Target: UniProt P11509
Sequence (P11509 whole entry): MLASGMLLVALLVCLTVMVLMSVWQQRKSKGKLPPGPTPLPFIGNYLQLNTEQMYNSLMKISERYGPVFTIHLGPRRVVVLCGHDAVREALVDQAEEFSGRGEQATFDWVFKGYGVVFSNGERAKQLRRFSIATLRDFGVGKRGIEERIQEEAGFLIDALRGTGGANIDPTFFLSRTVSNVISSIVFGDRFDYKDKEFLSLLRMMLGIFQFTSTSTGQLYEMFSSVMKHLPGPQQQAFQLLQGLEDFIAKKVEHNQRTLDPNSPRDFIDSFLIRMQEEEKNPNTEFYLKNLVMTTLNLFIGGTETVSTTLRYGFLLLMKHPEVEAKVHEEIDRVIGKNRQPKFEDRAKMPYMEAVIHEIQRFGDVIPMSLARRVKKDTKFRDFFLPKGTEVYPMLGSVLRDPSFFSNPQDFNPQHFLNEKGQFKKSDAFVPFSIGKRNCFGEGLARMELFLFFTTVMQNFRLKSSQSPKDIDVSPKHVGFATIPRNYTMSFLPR
Experiment: Mechanism based inhibition of human cytochrome P450 2A6 measured by coumarin 7-hxdroxylation using purified P450
Assay type: ADME
Parameter Measured: pKi
Field pKi (float): negative decimal logarithm of the concentration in molar.

Answer with the recorded pKi for the molecule listed here: Cc1coc2c1CCC(C)C2 (stereo unspecified) [MENTHOFURAN]
6.08

====

Molecular target: Cytochrome P450 2D6 (Homo sapiens)
Sequence (P10635 whole entry): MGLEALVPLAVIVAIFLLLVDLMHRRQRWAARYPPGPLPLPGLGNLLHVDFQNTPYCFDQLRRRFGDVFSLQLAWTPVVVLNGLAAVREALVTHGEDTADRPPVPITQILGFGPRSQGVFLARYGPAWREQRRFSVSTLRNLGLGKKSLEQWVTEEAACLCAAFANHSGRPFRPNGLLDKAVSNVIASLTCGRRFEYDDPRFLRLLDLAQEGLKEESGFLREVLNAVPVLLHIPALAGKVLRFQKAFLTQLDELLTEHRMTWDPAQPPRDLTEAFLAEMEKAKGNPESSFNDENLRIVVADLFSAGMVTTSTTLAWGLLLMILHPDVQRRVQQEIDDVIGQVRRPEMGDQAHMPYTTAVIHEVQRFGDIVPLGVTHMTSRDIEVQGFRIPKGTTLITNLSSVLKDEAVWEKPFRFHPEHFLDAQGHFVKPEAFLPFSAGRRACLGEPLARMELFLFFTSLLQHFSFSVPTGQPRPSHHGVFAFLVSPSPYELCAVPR
Test: Mechanism based inhibition of human cytochrome P450 2D6 measured by dextromethorphan O-demethylation using recombinant CYP2D6
Format: ADME
Parameter Measured: Ki
Kindly format the answer as number then unit.

Could you please provide reported Ki for CNC(C)Cc1ccc2c(c1)OCO2 (stereo unspecified) [MIDOMAFETAMINE] ? Thanks!
12.9 µM

====

Target: Cytochrome P450 2B6 (Homo sapiens, UniProt P20813)
Sequence (P20813 whole entry): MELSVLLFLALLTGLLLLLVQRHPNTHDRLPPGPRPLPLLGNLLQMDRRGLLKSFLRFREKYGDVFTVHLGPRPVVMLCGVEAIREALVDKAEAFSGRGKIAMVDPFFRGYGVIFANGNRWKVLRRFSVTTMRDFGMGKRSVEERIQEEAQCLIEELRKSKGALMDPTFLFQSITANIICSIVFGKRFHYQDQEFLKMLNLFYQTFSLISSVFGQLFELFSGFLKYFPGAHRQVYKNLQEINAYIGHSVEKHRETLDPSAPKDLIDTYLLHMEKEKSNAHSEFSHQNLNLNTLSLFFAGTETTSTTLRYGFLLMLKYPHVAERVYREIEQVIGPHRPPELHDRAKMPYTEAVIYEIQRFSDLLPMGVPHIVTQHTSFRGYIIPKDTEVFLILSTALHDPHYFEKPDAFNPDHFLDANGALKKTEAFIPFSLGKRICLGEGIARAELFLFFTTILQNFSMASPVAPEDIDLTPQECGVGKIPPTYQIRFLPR
Assay: Mechanism based inhibition of human cytochrome P450 2B6 measured by N-(3,5-dichloro-4-pyridyl)-3- (cyclopentoxy)-4- methoxybenzamide (DCMB) hydroxylase activity
Assay type: ADME
Parameter Measured: Ki (µM)
The response must be a number in µM with no trailing unit.

Provide Ki, recorded with Cytochrome P450 2B6 (Homo sapiens, UniProt P20813), of `C#CCOc1cc(C(=O)Nc2c(Cl)cncc2Cl)ccc1OC`
5.1

====

Target: CYP3A5 (Homo sapiens)
Assay: Mechanism based inhibition of human cytochrome P450 3A5 using expressed CYP3A5 cDNA
Format: ADME
Conditions: human, cDNA-expressed CYP3A5
Parameter Measured: kinact (s⁻¹)
Numeric only. Scale: s⁻¹

Hello, please tell me recorded kinact for this one: COc1ccc(CCNCCCC(C#N)(c2ccc(OC)c(OC)c2)C(C)C)cc1OC (stereo unspecified) [NORVERAPAMIL]
0.00117
